System: 186277-243-T-J2-PDC complex spheroid viability;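 further: 7 day exposure to compounds; 100% = DMSO vehicle control viability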
Measurement notes: Anticancer human tumor 186277-243-T-J2-PDC patient-derived colon adenocarcinoma cell line growth inhibition; active means viability on the fitted dose curve at most 10% of control; inactive means the rest
Stated conditions: second compound 10 µM; first compound 0.3 µM
Labels: yes (1) for active, no (0) for inactive

INSERT INTO measurements (molecule, assayed_system, class) VALUES
  ('Nc1ncn(C2CC(O)C(CO)S2)c(=O)n1 (stereo not given) + NC1CCC(NC2CC2c2ccccc2)CC1', '186277-243-T-J2-PDC complex spheroid viability', 'no (0)'),
  ('Nc1ccccc1NC(=O)c1ccc(CNC(=O)OCc2cccnc2)cc1 + NC1CC1c1ccc(-c2cccc(O)c2)cc1', '186277-243-T-J2-PDC complex spheroid viability', 'no (0)'),
  ('Nc1ncn(C2CC(O)C(CO)S2)c(=O)n1 (stereo not given) + NC1CC1c1ccc(-c2cccc(O)c2)cc1', '186277-243-T-J2-PDC complex spheroid viability', 'yes (1)'),
  ('Nc1ccccc1NC(=O)c1ccc(CNC(=O)OCc2cccnc2)cc1 + NC1CCC(NC2CC2c2ccccc2)CC1', '186277-243-T-J2-PDC complex spheroid viability', 'no (0)'),
  ('CCc1c2c(nc3ccc(O)cc13)-c1cc3c(c(=O)n1C2)COC(=O)[C@]3(O)CC + NC1CCC(NC2CC2c2ccccc2)CC1', '186277-243-T-J2-PDC complex spheroid viability', 'yes (1)');
